molecular target: hKv3.1b (Homo sapiens, UniProt P48547); construct: expressed in transfected cells; experiment: Automated patch clamp (QPatch-16x) on HEK-293 cells stably expressing hKv3.1b; assay type: cell-based; settings: maximum absolute hyperpolarizing shift of activation threshold at tested concentrations 0.37-30 μM
Sequence (P48547 1-585 isoform P48547-2): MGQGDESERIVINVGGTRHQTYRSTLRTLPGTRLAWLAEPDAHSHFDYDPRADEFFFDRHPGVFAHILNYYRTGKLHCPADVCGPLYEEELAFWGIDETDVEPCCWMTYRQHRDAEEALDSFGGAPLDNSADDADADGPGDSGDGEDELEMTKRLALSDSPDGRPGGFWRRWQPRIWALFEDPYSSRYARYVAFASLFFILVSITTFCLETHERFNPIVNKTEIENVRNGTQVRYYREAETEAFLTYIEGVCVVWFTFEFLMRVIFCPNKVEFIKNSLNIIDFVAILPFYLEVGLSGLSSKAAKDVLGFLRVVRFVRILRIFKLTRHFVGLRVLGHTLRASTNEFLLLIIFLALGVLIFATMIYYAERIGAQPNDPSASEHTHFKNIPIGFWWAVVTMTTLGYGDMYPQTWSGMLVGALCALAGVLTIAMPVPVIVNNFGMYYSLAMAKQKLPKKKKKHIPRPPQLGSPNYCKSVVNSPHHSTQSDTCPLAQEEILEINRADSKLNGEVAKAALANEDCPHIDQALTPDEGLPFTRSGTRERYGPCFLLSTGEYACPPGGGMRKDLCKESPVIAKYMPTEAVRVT
Measured endpoint: Threshold Shift
Put down the number, then write its unit next to it.

Illustrative cases are given below, each with its answer.
INSERT INTO assay_data (smiles_representation, system, result) VALUES
  ('Cc1cnc(CNC(=O)c2ccn(S(=O)(=O)c3ccccc3)c2)c(C)n1', 'hKv3.1b (Homo sapiens, UniProt P48547)', '21 mV'),
  ('Cc1ccc(S(=O)(=O)n2ccc(C(=O)NCc3cocn3)c2)cc1', 'hKv3.1b (Homo sapiens, UniProt P48547)', '15 mV'),
  ('Cc1ccc(S(=O)(=O)n2ccc(C(=S)NCc3cnc(C)cn3)c2)cc1', 'hKv3.1b (Homo sapiens, UniProt P48547)', '19 mV'),
  ('Cc1ccc(S(=O)(=O)n2ccc(C(=O)NCc3cn(C)cn3)c2)cc1', 'hKv3.1b (Homo sapiens, UniProt P48547)', '22 mV');

Exercise: Please look at COc1ccc(S(=O)(=O)n2ccc(C(=O)NCc3cnccn3)c2)cc1 and tell me its recorded Threshold Shift on hKv3.1b (Homo sapiens, UniProt P48547).
Solution: 23 mV
